system: PCSK9 gene; assay: PCSK9 gRNA/SpCas9 editing in primary cynomolgus hepatocytes (Tables 2, 22); assay type: cell-based, cynomolgus monkey; settings: 100 ng/RNA/mL; SpCas9 mRNA MS002 1:1 by weight
In the oligonucleotide strings, read from the 5' end, every base follows the letter of its sugar. An asterisk marks phosphorothioate; unmarked linkages are phosphodiester. Other units and linkages are bracketed, terminal groups are in braces. A string of capitals states the bases alone. m = 2'-O-methyl; r = 2'-OH (RNA)
measured endpoint: Cyno Primary Hepatocyte Editing % 100 (%)
Give bare numbers, in %.

Consider the reported Cyno Primary Hepatocyte Editing % 100 for these molecules:
{"columns": ["molecule", "measured endpoint", "unit annotation", "val"],
 "data": [
  ["GA203: PCSK9 gRNA; protospacer TGACCCTGCCCTCGATTTCC (SEQ ID NO: 197) (nucleic acid, sugars from the 5' end m3 r94 m3, linkages s3 o93 s3 (s phosphorothioate, o phosphodiester), T or U not given here) guide: UGACCCUGCCCUCGAUUUCCGUUUUAGAGCUAGAAAUAGCAAGUUAAAAUAAGGCUAGUCCGUUAUCAACUUGAAAAAGUGGCACCGAGUCGGUGCUUUU", "Cyno Primary Hepatocyte Editing % 100", "%", 3.66],
  ["GA206: PCSK9 gRNA; protospacer CCGGTGGTCACTCTGTATGC (SEQ ID NO: 200) (nucleic acid, sugars from the 5' end m3 r94 m3, linkages s3 o93 s3 (s phosphorothioate, o phosphodiester), T or U not given here) guide: CCGGUGGUCACUCUGUAUGCGUUUUAGAGCUAGAAAUAGCAAGUUAAAAUAAGGCUAGUCCGUUAUCAACUUGAAAAAGUGGCACCGAGUCGGUGCUUUU", "Cyno Primary Hepatocyte Editing % 100", "%", 0.84]
]}

Let us move to another entry and its Cyno Primary Hepatocyte Editing % 100.
State its Cyno Primary Hepatocyte Editing % 100: GA180: PCSK9 gRNA; protospacer GCGCACTGCCCGCCGCCTGC (SEQ ID NO: 174) (nucleic acid) guide: mG*mC*mG*rCrArCrUrGrCrCrCrGrCrCrGrCrCrUrGrCrGrUrUrUrUrArGrArGrCrUrArGrArArArUrArGrCrArArGrUrUrArArArArUrArArGrGrCrUrArGrUrCrCrGrUrUrArUrCrArArCrUrUrGrArArArArArGrUrGrGrCrArCrCrGrArGrUrCrGrGrUrGrCrU*mU*mU*mU 0.91
